- experiment: protein stability index of a GFP-peptide fusion (yeast GPS) (PSI 1-4); higher = more stable; sorted into four equal gates, so the index is relative within each strain
- experimental.parameters: doa10∆
attribute.measured: protein stability index
A bare number is all that is needed in reply.

Consider the following illustrative entries.
>>> df
              sequence_chain       attribute_measured  reading
0   KIMPKDILQITKKPLMV [SIR4]  protein stability index     2.62
1  QFLQLDNDGFSFLMRQF [ECM29]  protein stability index     1.33
2  MLLITSGDSGVYTLACR [RPC11]  protein stability index     1.58
3   TTIEEIFLHSLPVKEFQ [RPS2]  protein stability index     2.82
4  LPEILNVLCVNIKSNDF [ECM29]  protein stability index     1.56

Request: Need protein stability index of SVTIISAGNDKMVKAWN [ASC1] , thanks.
Response: 2.35

Request: // same read-out, input: YKLVNKNKENNTFTWNH [RPN4]
Response: 2.65

Request: Try TTVYRYSAAKKIPDTYT [YAR002W/NUP60] next.
Response: 1.34

Request: Same lookup for DTSKALLNVSVNITKFS [SKI6] , please.
Response: 2.27

Request: Do the same for ILTPESQLKKSKAQQKT [RPL7A] please
Response: 3.02

Request: Next entry: ELVRLLIIDEIHLLHDD [BRR2]
Response: 2.17

Request: And FNLNLPPSSFGRSHTRN [REC8] ?
Response: 3.35

Request: Also, TTKILGDKILGNLYSKV [YML103C/NUP188] please.
Response: 2.69

Request: And what about the sequence FKCQEKDKGVYVVTSDE [SIR2] ?
Response: 2.94

###

- experiment: protein stability index of a GFP-peptide fusion (yeast GPS) (PSI 1-4); higher = more stable; sorted into four equal gates, so the index is relative within each strain
- experimental.parameters: doa10∆
attribute.measured: protein stability index
# respond with the number and nothing more

Consider the worked cases shown below.
>>> print(df.to_string())
                     sequence_chain       attribute_measured  reading
0          RLGSEADAKAFLDSMAQ [FAS2]  protein stability index     3.38
1  RGKDGKLHVAAKLPGHK [YGL100W/SEH1]  protein stability index     3.31

Request: # lookup: protein stability index of RVSKDKKSGSLTFNSKN [FAS2]
Response: 3.34

Request: How about this sequence: EYEEWQKSVSLLSSESN [YDL116W/NUP84]
Response: 2.93

###

- experiment: protein stability index of a GFP-peptide fusion (yeast GPS) (PSI 1-4); higher = more stable; sorted into four equal gates, so the index is relative within each strain
- experimental.parameters: san1∆
Outcome label depends on protein stability index relative to 3: at/above gives T, below gives F.

Request: Is reported protein stability index greater than or equal to 3 here: VDPIQSVKGKVVIDAFR [RPN11]
Response: F

Request: Now this one: TSAIEVLVGSCAYTGTG [RPN1]
Response: T

Request: Also LDQVGVPKSIAKTLTYP [RPO21] , if possible.
Response: F

Request: And then RARGPMQVLTRQPVEGR [RPB2] , what is it?
Response: F

Request: Check MMLGEHLMSWSKTGIIA [SIN4] too.
Response: F

Request: Please do the same for VSGNNASDEPSRKKNRR [SSN3] as well.
Response: F

Request: Also KTEPVGTGLQSYLEERE [RPC53] ?
Response: T

Request: Another: LDPLEVHMLDFPNIAIR [PRP8]
Response: F

Request: And what about the sequence MPSRFTKTRKHRGHVSA [RPL28] ?
Response: F

Request: Input LTHPKYLNSRIIPTTLE [YML103C/NUP188]
Response: F

Request: Please give the result for SNDKFVHVQLLINLKIS [SRB8] too.
Response: F

###

- experiment: protein stability index of a GFP-peptide fusion (yeast GPS) (PSI 1-4); higher = more stable; sorted into four equal gates, so the index is relative within each strain
- experimental.parameters: ubr1∆
Measured protein stability index determines class: low end: < 2; middle: ≥ 2 and < 3; high end: ≥ 3

Request: Band assignment needed for GNEVSSLYPPPPPYVKF [MED7] please.
Response: high end

###

- experiment: protein stability index of a GFP-peptide fusion (yeast GPS) (PSI 1-4); higher = more stable; sorted into four equal gates, so the index is relative within each strain
- experimental.parameters: ubr1∆
attribute.measured: protein stability index

For orientation, consider the following solved cases.
>>> df
                     sequence_chain  reading
0  APSIGRWYQLIATGCKD [YGL100W/SEH1]     2.17
1         IEQLFPVRPVRVRHEDV [RPC53]     3.03
2         NVKFLRIFISNVSENQP [SNF12]     1.95
3          HIAHTLPEKVNFRTMQQ [SSN2]     2.75
4          TLLVIRRLHKVLRPFLL [SNF2]     1.09

Request: Could you share which protein stability index value was measured for INGWELTKAQKYLEQVL [RPL17A] ?
Response: 3.36

Request: Thanks! And DKILQLNDRFQTLSSHL [PGD1] ?
Response: 2.46

Request: Next entry: VLVDEIKSQYYSRISKL [YIL149C/MLP2]
Response: 2.29

###

- experiment: protein stability index of a GFP-peptide fusion (yeast GPS) (PSI 1-4); higher = more stable; sorted into four equal gates, so the index is relative within each strain
- experimental.parameters: ubr1∆
In this section we review reported protein stability index values for a set of sequences.

Examples with their reported protein stability index follow.
              sequence_chain       attribute_measured  reading
0   VENYETSSAFFYQQVHK [SIR4]  protein stability index     2.52
1  KVLAAHTKFEVAIGLNG [RRP40]  protein stability index     2.89
2   NTFTWNHSLQHQNESSA [RPN4]  protein stability index     3.17
3  QQMQPPNSSANNNPLQQ [GAL11]  protein stability index     2.95
4  GKHSIGLIWYLLAREVL [RPS0A]  protein stability index     2.06

Request: Which protein stability index value belongs to KMVKAWNLNQFQIEADF [ASC1] ?
Response: 2.55

Request: Now consider TEYFENKQSVSNLSPDL [DSN1] and answer again.
Response: 3.58

Request: Then what about the sequence QWSATWIAMRREKRDRT [PRP8] ?
Response: 2.73

###

- experiment: protein stability index of a GFP-peptide fusion (yeast GPS) (PSI 1-4); higher = more stable; sorted into four equal gates, so the index is relative within each strain
- experimental.parameters: pdr5∆
attribute.measured: protein stability index
// keep it numeric: no unit symbol after the value

Worked examples, 4 sequences total:
In [3]: df
Out[3]:
              sequence_chain  reading
0   SGLNRAISTGNWSLKRF [RET1]     2.57
1   NTSLISLFTYFREAIVA [PRP8]     1.49
2  KDLETLYNKIWTEASSS [ECM29]     2.84
3   KNSDVWFLDHNYIENMN [RPN8]     2.44

Request: Entry under review: SGTTNFMRNGLLEGLNE [UBP6] . Reported protein stability index?
Response: 2.87

Request: Quick one: ELKNELAKTKENYDAKI [YIL149C/MLP2]
Response: 3.43

Request: Next up: DDALHAKKLPNGNWEVG [DIS3]
Response: 3.12

###

- experiment: protein stability index of a GFP-peptide fusion (yeast GPS) (PSI 1-4); higher = more stable; sorted into four equal gates, so the index is relative within each strain
- experimental.parameters: ubr1∆
Classification field: true (1) = protein stability index at or over 3; false (0) = protein stability index under 3.

Take a look at these entries with their results.
>>> print(df.to_string())
                       sequence_chain        cat
0            EPLTEIKNVIVSNRVAA [RPP0]  false (0)
1            NLKEYNKFMSIFLKRKD [SRB8]  false (0)
2           MPSRFTKTRKHRGHVSA [RPL28]  false (0)
3            TQTESKKEENETISNVA [SNF2]   true (1)
4           DHQHILRKLKKMNNKPE [RPC53]  false (0)
5            NLHALSMSLQSKNLGEI [SWI1]  false (0)
6  FMNDAAADVSAVDAKQL [YML103C/NUP188]  false (0)
7            NAEVVAGNIKCRNDAVN [BRR2]  false (0)
8           FIEVRNFLGDKKIRNVP [RPL9A]   true (1)

# input for lookup
Request: Exam item: decide whether the reported protein stability index for PDGLGEVGMKVQSGQIY [RET1] is at least 3.
Response: true (1)
